The values you see were collected from ChEMBL document CHEMBL1132592.

Target: Alkaline phosphatase, tissue-nonspecific isozyme (Rattus norvegicus) (UniProt P08289)
Sequence (whole entry): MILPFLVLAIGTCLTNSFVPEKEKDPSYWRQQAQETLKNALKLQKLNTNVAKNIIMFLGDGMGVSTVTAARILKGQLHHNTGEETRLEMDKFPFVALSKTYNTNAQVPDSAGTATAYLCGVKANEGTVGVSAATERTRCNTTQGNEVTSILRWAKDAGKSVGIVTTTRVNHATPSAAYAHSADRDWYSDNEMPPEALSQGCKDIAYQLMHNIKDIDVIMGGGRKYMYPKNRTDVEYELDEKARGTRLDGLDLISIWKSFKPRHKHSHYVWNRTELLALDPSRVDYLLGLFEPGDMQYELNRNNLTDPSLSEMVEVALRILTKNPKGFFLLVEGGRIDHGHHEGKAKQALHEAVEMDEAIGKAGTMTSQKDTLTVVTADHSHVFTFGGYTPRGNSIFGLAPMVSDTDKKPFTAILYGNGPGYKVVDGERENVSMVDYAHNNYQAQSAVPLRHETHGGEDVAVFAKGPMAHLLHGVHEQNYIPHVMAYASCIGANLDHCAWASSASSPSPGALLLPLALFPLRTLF
Experiment: Effect on alkaline phosphatase activity compared to control in culture of rat bone marrow stromal cells, 10E-5 M concentration
Type: tissue-based
Measurement Type: ALP activity

{"Structure String": "COc1cc2c(cc1OC)[C@H](C(=O)Nc1ccc(Cl)cc1)SCC2=O", "Test Result": 1.3}
{"Structure String": "CCOP(=O)(Cc1ccc(NC(=O)[C@H]2Cc3cc(OC)c(OC)cc3C(=O)[C@H](C(C)C)S2)cc1)OCC", "Test Result": 1.4}
{"Structure String": "C[C@@H]1S[C@@H](C(=O)Nc2nc(-c3ccccc3)cs2)c2cc3c(cc2C1=O)OCO3", "Test Result": 1.3}
